biological target: Luciferin 4-monooxygenase (Photinus pyralis) (UniProt P08659); assay: CCTE_Simmons_QuantiLum_inhib_2: CCTE's Firefly Luciferase Inhibition Assay, Simmons Lab (AID 2283767);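 as to AC50: potency for inhibitors that lower luciferase luminescence relative to DMSO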
Sequence (P08659 whole entry, looked up): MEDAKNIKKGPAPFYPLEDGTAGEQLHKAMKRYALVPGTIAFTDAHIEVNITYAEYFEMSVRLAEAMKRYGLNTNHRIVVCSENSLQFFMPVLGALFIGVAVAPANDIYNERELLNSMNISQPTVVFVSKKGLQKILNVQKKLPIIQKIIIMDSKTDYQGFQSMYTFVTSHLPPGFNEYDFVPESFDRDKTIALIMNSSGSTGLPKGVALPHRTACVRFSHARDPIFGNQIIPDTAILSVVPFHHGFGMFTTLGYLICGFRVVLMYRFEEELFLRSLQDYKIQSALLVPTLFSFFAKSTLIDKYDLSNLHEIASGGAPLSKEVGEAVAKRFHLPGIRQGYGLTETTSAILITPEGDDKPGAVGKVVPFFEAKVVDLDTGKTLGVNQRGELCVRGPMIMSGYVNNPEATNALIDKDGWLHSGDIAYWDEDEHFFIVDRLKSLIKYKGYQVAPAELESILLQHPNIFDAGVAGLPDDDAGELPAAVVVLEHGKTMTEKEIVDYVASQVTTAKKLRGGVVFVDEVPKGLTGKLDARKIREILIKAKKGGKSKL
Inconclusive results are not listed. Activity calls are given as the source filed them. The calls were made as follows: active = hit-call score of the fitted dose curve at least 0.9, where 1 is the maximum; inconclusive = response in the unintended direction; inactive = score below 0.9.
quantity name: AC50

# count of solved cases: 9
- smiles structure: "Cc1c(C(=O)O)c(O)cc2c1C(=O)c1c(O)c([C@@H]3O[C@H](CO)[C@@H](O)[C@H](O)[C@H]3O)c(O)c(O)c1C2=O"
  quantity name: "AC50"
  result: "18.5 µM (active)"
- smiles structure: "Nc1nc(N)c2nc(CNc3ccc(C(=O)N[C@@H](CCC(=O)O)C(=O)O)cc3)cnc2n1"
  quantity name: "AC50"
  result: "inactive"
- smiles structure: "Cc1cc(=O)[nH]c(=S)[nH]1"
  quantity name: "AC50"
  result: "53.8 µM (active)"
- smiles structure: "C[C@]12C=CC(=O)C=C1CC[C@@H]1[C@@H]2C(=O)C[C@@]2(C)[C@H]1CC[C@]2(O)C(=O)CO"
  quantity name: "AC50"
  result: "inactive"
- smiles structure: "CN[C@H]1CC[C@@H](c2ccc(Cl)c(Cl)c2)c2ccc(S(N)(=O)=O)cc21"
  quantity name: "AC50"
  result: "10.7 µM (active)"
- smiles structure: "CC(C)(C)c1cc(O)c(C(C)(C)C)cc1O"
  quantity name: "AC50"
  result: "inactive"
- smiles structure: "CNC(=O)[C@H]1O[C@@H](n2cnc3c(NCc4cc(Cl)ccc4OCc4cc(C)no4)ncnc32)[C@H](O)[C@@H]1N"
  quantity name: "AC50"
  result: "inactive"
- smiles structure: "CN1CCCC1=O"
  quantity name: "AC50"
  result: "inactive"
- smiles structure: "CCCc1cc(=O)[nH]c(=S)[nH]1"
  quantity name: "AC50"
  result: "inactive"

Next item in the queue.
Prompt: Endpoint output: AC50 of Cc1ccc(N(C)C)cc1 . Value?
Response: inactive

====

read-out: sulfotransferase 2A1 (SULT2A1), SULT2A1 (gene 6822); test: LTEA_HepaRG_SULT2A1: Life Technologies and Expression Analysis (LTEA) Assay for sulfotransferase 2A1 (SULT2A1) using HepaRG (AID 2283531); conditions: mRNA level, 48 h; actives raise or lower the signal
Activity calls are given as the source filed them. Rule for the calls: active = hit-call score of the fitted dose curve at least 0.9, where 1 is the maximum; inactive = score below 0.9.
Classes to choose from: active, inactive

Prompt: // param item: COCCOCCOC ; yields the recorded call
Response: inactive

Prompt: Another molecule: CN1CCCC1=O
Response: inactive

Prompt: Another molecule: CCCCOC(=O)CCCCCCCCC(=O)OCCCC
Response: inactive

Prompt: Another molecule: CCCCc1ccc2c(n1)[C@@H](c1ccc(OC)cc1C[C@H](C)C(=O)O)[C@H](C(=O)O)[C@H]2c1ccc2c(c1)OCO2
Response: inactive

Prompt: Another molecule: Nc1ccccc1N
Response: active

Prompt: Another molecule: NC(=O)Cn1c(=O)cc(CCN2CCN(c3nccc4sccc34)CC2)c2ccc(F)cc21
Response: inactive

Prompt: Another molecule: Cc1ccc(C(C)C)c(O)c1
Response: inactive

Prompt: Another molecule: Cc1nc(-c2ccc3c(c2)CCN(CCC2CCC(NC(=O)/C=C/c4ccc(F)cc4)CC2)CC3)no1 (stereo not drawn)
Response: inactive

Prompt: Another molecule: C1CCC(SSC2CCCCC2)CC1
Response: inactive

Prompt: Another molecule: Nc1nc(N)c2nc(CNc3ccc(C(=O)N[C@@H](CCC(=O)O)C(=O)O)cc3)cnc2n1
Response: active

Prompt: Another molecule: CCCCCCCCCCO
Response: inactive

Prompt: Another molecule: CCOC(=O)CCC(=O)OCC
Response: inactive

Prompt: Another molecule: O=C(O)CCCCC(=O)O
Response: inactive

====

read-out: ABC Transporter (ABCC2), ABCC2 (gene 1244); assay: LTEA_HepaRG_ABCC2: Life Technologies and Expression Analysis (LTEA) Assay for ABC Transporter (ABCC2) using HepaRG (AID 2283464); conditions: mRNA level, 48 h; actives raise or lower the signal
Calls of active or inactive are those of the source. How the source made its calls: active means hit-call score of the fitted dose curve at least 0.9, where 1 is the maximum; inactive means score below 0.9.
Classes to choose from: active, inactive

Prompt: // param item: CC(C)c1ccc(C(=O)N=C(N)N)cc1S(C)(=O)=O ; yields the recorded call
Response: active

Prompt: Another compound: Cc1ccc2ncccc2c1
Response: inactive

Prompt: Another compound: COC(=O)c1ccc(O)cc1
Response: inactive

Prompt: Another compound: C=CCOC(=O)c1ccccc1C(=O)OCC=C
Response: inactive

Prompt: Another compound: Cc1ccc(C(C)C)c(O)c1
Response: inactive

Prompt: Another compound: Cc1nc(-c2ccc3c(c2)CCN(CCC2CCC(NC(=O)/C=C/c4ccc(F)cc4)CC2)CC3)no1 (configuration not stated)
Response: inactive

Prompt: Another compound: OC[C@@H](O)[C@@H](O)[C@H](O)[C@H](O)CO
Response: inactive

Prompt: Another compound: CC(CO)OC(C)CO (configuration not stated) (tested in a mixture with another compound)
Response: inactive

Prompt: Another compound: O=C(O)Cc1ccccc1Nc1c(Cl)cccc1Cl
Response: active

Prompt: Another compound: CCCCc1ccc2c(n1)[C@@H](c1ccc(OC)cc1C[C@H](C)C(=O)O)[C@H](C(=O)O)[C@H]2c1ccc2c(c1)OCO2
Response: inactive

Prompt: Another compound: Nc1ccc2c(c1)C(=O)c1ccccc1C2=O
Response: inactive

Prompt: Another compound: Cc1ccc(C)c(O)c1C
Response: inactive

Prompt: Another compound: Cc1nc(C)nc(N2C[C@@H](C)N(c3ccnc([C@@H](C)O)n3)[C@@H](C)C2)n1
Response: inactive

Prompt: Another compound: O=C(N[C@@H](Cc1ccccc1)[C@@H](O)C(=O)N1C[C@@H](O)[C@@H](O)C1)c1cc2cc(Cl)ccc2[nH]1
Response: inactive

Prompt: Another compound: NC(=O)Cn1c(=O)cc(CCN2CCN(c3nccc4sccc34)CC2)c2ccc(F)cc21
Response: inactive

Prompt: Another compound: C[C@]12C=CC(=O)C=C1CC[C@@H]1[C@@H]2C(=O)C[C@@]2(C)[C@H]1CC[C@]2(O)C(=O)CO
Response: active

Prompt: Another compound: Cc1ccccc1Cl
Response: inactive

====

read-out: adenosine kinase (ADK) gene, ADK (gene 132); experiment: LTEA_HepaRG_ADK: Life Technologies and Expression Analysis (LTEA) Assay for adenosine kinase (ADK) gene using HepaRG (AID 2283471); settings: mRNA level, 48 h; actives raise or lower the signal
Activity calls are given as the source filed them. Rule for the calls: active = hit-call score of the fitted dose curve at least 0.9, where 1 is the maximum; inactive = score below 0.9.
Classes to choose from: yes (1) for active, no (0) for inactive

Prompt: // param item: CC1=C(/C=C/C(C)=C/C=C/C(C)=C/CO)C(C)(C)CCC1 ; yields the recorded call
Response: no (0)

Prompt: Another compound: CCNc1cccc(C)c1
Response: no (0)

Prompt: Another compound: Cc1cc(=O)[nH]c(=S)[nH]1
Response: no (0)

Prompt: Another compound: NS(=O)(=O)c1cc2c(cc1Cl)NCNS2(=O)=O
Response: no (0)

Prompt: Another compound: Oc1ccc2ccccc2c1N=Nc1ccccc1
Response: no (0)

Prompt: Another compound: CCCCCCCC=O
Response: no (0)

Prompt: Another compound: C[Si]1(C)O[Si](C)(C)O[Si](C)(C)O[Si](C)(C)O1
Response: no (0)

Prompt: Another compound: O=C(N[C@@H](Cc1ccccc1)[C@@H](O)C(=O)N1C[C@@H](O)[C@@H](O)C1)c1cc2cc(Cl)ccc2[nH]1
Response: no (0)

Prompt: Another compound: Cc1c(C(=O)O)c(O)cc2c1C(=O)c1c(O)c([C@@H]3O[C@H](CO)[C@@H](O)[C@H](O)[C@H]3O)c(O)c(O)c1C2=O
Response: no (0)

Prompt: Another compound: C[C@]12C=CC(=O)C=C1CC[C@@H]1[C@@H]2C(=O)C[C@@]2(C)[C@H]1CC[C@]2(O)C(=O)CO
Response: no (0)

Prompt: Another compound: Nc1ccccc1N
Response: yes (1)

====

test: CEETOX_H295R_OHPROG: CeeTox H295R High-throughput Steroidogenesis Assay for OH-Progesterone (OHPROG) (AID 2283435); settings: actives raise or lower the signal;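 as to AC50: human adrenal H295R cells primed 48 h with 10 µM forskolin; 17alpha-hydroxyprogesterone secreted into medium measured by HPLC-MS/MS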
Activity calls are given as the source filed them. The calls were made as follows: active = hit-call score of the fitted dose curve at least 0.9, where 1 is the maximum; inactive = score below 0.9.

- compound: "Cc1c(C(=O)O)c(O)cc2c1C(=O)c1c(O)c([C@@H]3O[C@H](CO)[C@@H](O)[C@H](O)[C@H]3O)c(O)c(O)c1C2=O"
  AC50: "inactive"
- compound: "Cc1nc(-c2ccc3c(c2)CCN(CCC2CCC(NC(=O)/C=C/c4ccc(F)cc4)CC2)CC3)no1 (centres undefined)"
  AC50: "0.224 µM (active)"
- compound: "CC1(C)CC(N=C=O)CC(C)(CN=C=O)C1 (centres undefined)"
  AC50: "inactive"
- compound: "Cc1cc(NC(=O)C(=O)O)cc(C)c1Oc1ccc(O)c2c1CCC2"
  AC50: "35 µM (active)"
